Tested on: bone marrow cells of Paget's disease of bone patients
Test: Osteoclast formation induced by 1α,25-dihydroxyvitamin D3 in bone marrow cultures from Paget's disease of bone patients
Format: cell-based, human
Settings: compound alone, 10^−9 M; Paget's marrow
Field: label. Allowed values: MET (osteoclast formation (average number of cells ± S.D.) < 30 cells) or NOT MET (osteoclast formation (average number of cells ± S.D.) >= 30 cells).

Before answering, review these 4 worked examples.
| COMPOUND | ASSIGNED_LABEL |
| --- | --- |
| C=C1CC(CC(C)C2CCC3C(=CC=C4CC(O)CC(O)C4=C)CCCC32C)CC1=O (single isomer, unassigned; less polar) [compound 13 (less polar isomer)] | MET |
| C=C1CC(CC(C)C2CCC3C(=CC=C4CC(O)CC(O)C4=C)CCCC32C)OC1=O (stereo not drawn) [compound 11 (23R isomer)] | NOT MET |
| C=C1CC(CC(C)C2CCC3C(=CC=C4CC(O)CC(O)C4=C)CCCC32C)CC1=O (single isomer, unassigned; more polar) [compound 13 (more polar isomer)] | NOT MET |
| C=C1/C(=C\C=C2/CCC[C@]3(C)[C@@H]([C@H](C)CCCC(C)(C)O)CC[C@@H]23)C[C@@H](O)C[C@@H]1O [1α,25-dihydroxyvitamin D3, reference compound] | NOT MET |

Now take the following compound into account.
Prompt: hey, is osteoclast formation (average number of cells ± S.D.) for C=C1CC(CC(C)C2CCC3C(=CC=C4CC(O)CC(O)C4=C)CCCC32C)OC1=O (stereo not drawn) [compound 11 (23S isomer)] lower than 30 cells or not?
Completion: MET
